// pKd lookup, one value per entry
target: equine FcRn (large alpha subunit p51) / equine beta-2-microglobulin complex, biotinylated (equine) (UniProt P30441); assay: SPR (Biacore), pH 6
pKd: −log10 of the molar value.
REPORTED PROPERTY: pKd

BINDER: equine IgG4 A426D (antibody, part only; not given: variable domains, not shown: another chain or arm of the molecule) constant: ASTTAPKVFPLASHSAATSGSTVALGCLVSSYFPEPVTVSWNSGALTSGVHTFPSVLQSSGLYSLSSMVTVPASSLKSQTYICNVAHPASSTKVDKKIVIKECNGGCPAECLQVGPSVFIFPPKPKDVLMISRTPTVTCVVVDVGHDFPDVQFNWYVDGVETHTATTEPKQEQFNSTYRVVSVLPIQHKDWLSGKEFKCKVNNKALPAPVERTISKPTGQPREPQVYVLAPHRDELSKNKVSVTCLVKDFYPTDIDIEWKSNGQPEPETKYSTTPAQLDSDGSYFLYSKLTVETNRWQQGTTFTCDVMHEALHNHYTEKSVSKSPGK
REPORTED PROPERTY: pKd
READOUT VALUE: 7.81

BINDER: equine IgG4 M428H (antibody, part only; not given: variable domains, not shown: another chain or arm of the molecule) constant: ASTTAPKVFPLASHSAATSGSTVALGCLVSSYFPEPVTVSWNSGALTSGVHTFPSVLQSSGLYSLSSMVTVPASSLKSQTYICNVAHPASSTKVDKKIVIKECNGGCPAECLQVGPSVFIFPPKPKDVLMISRTPTVTCVVVDVGHDFPDVQFNWYVDGVETHTATTEPKQEQFNSTYRVVSVLPIQHKDWLSGKEFKCKVNNKALPAPVERTISKPTGQPREPQVYVLAPHRDELSKNKVSVTCLVKDFYPTDIDIEWKSNGQPEPETKYSTTPAQLDSDGSYFLYSKLTVETNRWQQGTTFTCAVHHEALHNHYTEKSVSKSPGK
REPORTED PROPERTY: pKd
READOUT VALUE: 7.53
